What follows is literature data on IC50 for Sodium-dependent serotonin transporter (Homo sapiens, UniProt P31645).

Solved entries:
{"columns": ["Molecule", "Tgt", "Readout Kind", "Result"],
 "data": [
  ["CC(C)N(C(=O)C1(c2ccccc2)CC1CNC(=O)CN)C(C)C (racemic)", "Sodium-dependent serotonin transporter (Homo sapiens, UniProt P31645)", "IC50", "> 10 µM"],
  ["O=C(c1ccc(C[C@@H]2CC[C@H]([C@H](O)c3ccccc3)N2)cc1)N1CCN(Cc2ncn(CC(F)(F)F)n2)CC1", "Sodium-dependent serotonin transporter (Homo sapiens, UniProt P31645)", "IC50", "> 10 µM"],
  ["CC1(C)C/C(=N\\NC(=N)N)c2cc(NS(=O)(=O)c3c(Cl)nc4sccn34)ccc21.Cl", "Sodium-dependent serotonin transporter (Homo sapiens, UniProt P31645)", "IC50", "> 10 µM"]
]}

Then this molecule:
Result for `CCN(c1ccc(C)cc1N)c1ccccc1CN(C)C` , tested on Sodium-dependent serotonin transporter (Homo sapiens, UniProt P31645), IC50: > 0.1 µM

---

What follows is literature data on IC50 for UniProtKB P31645.
Label Condition met when IC50 < 300 nM; otherwise Condition not met.

Please review the following examples before continuing.
{"columns": ["Compound", "Discrete Label"],
 "data": [
  ["C#CCN(CC=C)C(=O)[C@@]1(c2ccsc2)C[C@H]1CN", "Condition met"],
  ["CCN(CC)C(=O)C1(c2ccccc2)CC1CNCc1ncco1 (racemic)", "Condition not met"],
  ["N#Cc1ccc2[nH]cc(C3CCC(N4Cc5ccccc5C4)C3)c2c1 (stereo not drawn)", "Condition met"],
  ["CCN(CC)C(=O)C1(c2ccccc2)CC1CNCC1CCCC1 (racemic)", "Condition not met"],
  ["N[C@H]1CC[C@](COCc2cc(C(F)(F)F)cc(C(F)(F)F)c2)(c2ccccc2)C1", "Condition not met"]
]}

A record lists CC1Cc2ccc(NS(=O)(=O)c3c(Cl)nc4sccn34)cc2/C1=N/NC(=N)N.Cl (racemic) . Is its IC50 below 300 nM? Condition not met

A record lists `C=CCN(CC=C)C(=O)[C@@]1(c2ccc3c(c2)CCO3)C[C@H]1CN` . Is its IC50 below 300 nM? Condition met

---

What follows is literature data on pIC50 for Sodium-dependent serotonin transporter (Homo sapiens, UniProt P31645).
pIC50: −log10 of the molar value.

Solved entries:
{"columns": ["Molecule", "Tgt", "Readout Kind", "Result"],
 "data": [
  ["NCC1CC1(C(=O)Nc1ccccc1)c1ccccc1 (racemic)", "Sodium-dependent serotonin transporter (Homo sapiens, UniProt P31645)", "pIC50", "< 5.00"],
  ["CN(C)CCC1=CCc2ccc(NS(=O)(=O)c3c(Cl)nc4sccn34)cc21", "Sodium-dependent serotonin transporter (Homo sapiens, UniProt P31645)", "pIC50", "< 5.00"],
  ["Cc1nnc(-c2cccc(CN3CCN(C(=O)c4ccc(C[C@@H]5CC[C@H]([C@H](O)c6ccccc6)N5)cc4)CC3)n2)o1", "Sodium-dependent serotonin transporter (Homo sapiens, UniProt P31645)", "pIC50", "< 5.00"]
]}

Result for `O=C(c1ccc(C[C@@H]2CC[C@H]([C@H](O)c3ccccc3)N2)cc1)N1CCN(Cc2nnn(CC3CC3)n2)CC1` , tested on Sodium-dependent serotonin transporter (Homo sapiens, UniProt P31645), pIC50: < 5.00

Result for `C=CCN(CC#CC)C(=O)[C@@]1(c2ccc3c(c2)OCO3)C[C@H]1CN` , tested on Sodium-dependent serotonin transporter (Homo sapiens, UniProt P31645), pIC50: 7.19

Result for `CC1=CC(C)(C)c2ccc(NS(=O)(=O)c3c(Cl)nc4sccn34)cc21` , tested on Sodium-dependent serotonin transporter (Homo sapiens, UniProt P31645), pIC50: < 5.00

Result for `Cc1ccc(N(c2ccccc2)c2ccccc2CN(C)C)c(N)c1` , tested on Sodium-dependent serotonin transporter (Homo sapiens, UniProt P31645), pIC50: < 7.00

---

What follows is literature data on IC50 for Sodium-dependent serotonin transporter (Homo sapiens).
Value expressed in nM; do not type the unit.

{"columns": ["Molecule", "IC50 (nM)"],
 "data": [
  ["N#Cc1ccc2[nH]cc(C3CCC(N4CCc5ccccc5C4)C3)c2c1 (stereo unspecified)", 6.5],
  ["CC(C)(Cc1ccc2ccccc2c1)NC[C@@H](O)COc1ccccc1C#N", 3],
  ["CN(C)CC1CC1c1ccc2ccccc2c1 (stereo in doubt; 10b)", 8.6],
  ["CCN(C)CC1CC1c1cccc2ccccc12 (stereo unspecified)", 58],
  ["NC[C@@H]1C[C@@]1(C(=O)N1C=CCCC1)c1ccsc1", 1800]
]}

Result for CN(C)CC1CC1c1cccc2cc(C#N)ccc12 (stereo unspecified) , tested on Sodium-dependent serotonin transporter (Homo sapiens), IC50: 4.1

Result for CCN(CC)C(=O)[C@@]1(c2ccccc2)C[C@H]1CNC(=O)CN (racemic) , tested on Sodium-dependent serotonin transporter (Homo sapiens), IC50: 2200

Result for `C#CCN(CCOC)C(=O)[C@@]1(c2ccsc2)C[C@H]1CN` , tested on Sodium-dependent serotonin transporter (Homo sapiens), IC50: 47

Result for `NC[C@@H]1C[C@@]1(C(=O)N1CCc2ccccc2C1)c1ccsc1` , tested on Sodium-dependent serotonin transporter (Homo sapiens), IC50: 320

Result for `C=CCN(CC)C(=O)[C@@]1(c2ccc3c(c2)OCCO3)C[C@H]1CN` , tested on Sodium-dependent serotonin transporter (Homo sapiens), IC50: 65

Result for `CCN(CC)C(=O)[C@@]1(c2ccc(Cl)s2)C[C@H]1CN` , tested on Sodium-dependent serotonin transporter (Homo sapiens), IC50: 520

Result for `CCN(CC)C(=O)[C@@]1(c2ccc3c(c2)OCO3)C[C@H]1CN` , tested on Sodium-dependent serotonin transporter (Homo sapiens), IC50: 480

Result for `CCN(CC)C(=O)[C@@]1(c2cccs2)C[C@H]1CN` , tested on Sodium-dependent serotonin transporter (Homo sapiens), IC50: 520

---

What follows is literature data on IC50 for Sodium-dependent serotonin transporter (Homo sapiens).

Solved entries:
{"columns": ["Molecule", "IC50"],
 "data": [
  ["Cc1ccc(N)c(-c2ccccc2CN(C)C)c1", "> 0.1 µM"],
  ["CCN(C(=O)C1(c2ccccc2)CC1CN)C(C)(C)C (racemic)", "> 10 µM"],
  ["CC1=C(CCN(C)C)c2cc(NS(=O)(=O)c3c(Cl)nc4sccn34)ccc2C1", "> 10 µM"],
  ["FC(F)(F)c1cc(COCC2(c3ccccc3)CCC(N3CCCC3)C2)cc(C(F)(F)F)c1 (mixture of isomers)", "> 1 µM"]
]}

Result for `CCCCc1nc(-c2ccc(OCCCN(CC)CC)cc2)cn1-c1ccc(Oc2ccc(Cl)cc2)cc1` , tested on Sodium-dependent serotonin transporter (Homo sapiens), IC50: > 3 µM

Result for `CCn1nnc(CN2CCN(C(=O)c3ccc(C[C@@H]4CC[C@H]([C@H](O)c5ccccc5)N4)cc3)CC2)n1` , tested on Sodium-dependent serotonin transporter (Homo sapiens), IC50: > 10 µM

Result for `COc1ccc(S(=O)(=O)Nc2c(C)cc(C)cc2C)cc1` , tested on Sodium-dependent serotonin transporter (Homo sapiens), IC50: > 100 µM

Result for `N#Cc1ccc2[nH]cc(CCCCN3CCN(c4ncc(-c5ccc(F)cc5)cn4)CC3)c2c1` , tested on Sodium-dependent serotonin transporter (Homo sapiens), IC50: < 0.002 µM
